target: IL-17A(FLAG-Tagged): IL-17RA(His-Tagged) (Homo sapiens, UniProt Q16552, K93Q); assay: IL-17A(FLAG-Tagged): IL-17RA(His-Tagged) Binding Disruption Eu-HTRF Assay; conditions: disruption of IL-17A/IL-17RA binding; simple average if tested more than once
Sequence (Q16552 with tags, fused parts or gaps K93Q): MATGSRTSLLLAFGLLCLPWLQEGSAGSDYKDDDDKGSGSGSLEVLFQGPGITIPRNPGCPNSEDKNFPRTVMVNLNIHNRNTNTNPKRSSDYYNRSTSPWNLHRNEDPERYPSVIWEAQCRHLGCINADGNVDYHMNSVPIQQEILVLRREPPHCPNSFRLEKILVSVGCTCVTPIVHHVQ
readout_kind: pIC50
Worth noting: pIC50 values are minus log10 of concentrations stated in mol/L.

# annotated cases, reported pIC50 shown
Prompt line: pIC50 of Cc1nonc1C(=O)N[C@H](c1cn2ccc([C@H](NC(=O)C[C@H]3C[C@H](F)C3)C3CC3)nc2n1)C1CCC(F)(F)CC1 [Example 61] on IL-17A(FLAG-Tagged): IL-17RA(His-Tagged) (Homo sapiens, UniProt Q16552, K93Q)?
Response line: 6.34

Prompt line: Request: pIC50, test system IL-17A(FLAG-Tagged): IL-17RA(His-Tagged) (Homo sapiens, UniProt Q16552, K93Q), entry O=C(CC1CC(F)(F)C1)N[C@@H](c1ccn2cc([C@@H](NC(=O)c3ccnc(CC(F)(F)F)c3)C3CCC(F)(F)CC3)nc2n1)C1CC1 [Example 25]
Response line: 6.51

Attention now turns to another entry.
Prompt line: Tell me reported pIC50 for CC(C)n1nccc1C(=O)N[C@H](c1nc2nc([C@H](NC(=O)CCC(F)(F)F)C3CC3)ccn2c1F)C1CCC(F)(F)CC1 [Example 35] , tested with IL-17A(FLAG-Tagged): IL-17RA(His-Tagged) (Homo sapiens, UniProt Q16552, K93Q).
Response line: 6.09
